METHOD_SUMMARY: in vitro
PARTICULARS: human, hela cells, % viability
viability at 28.5 h, 10 µM reference
State the answer as a number, implicitly in %.

| COMPOUND | READOUT_LABEL | NUMERIC_VALUE |
| --- | --- | --- |
| Cc1ccc(OCC(=O)N2CCN(C(=O)c3ccncc3)CC2)cc1 [CBK300480] | viability at 28.5 h, 10 µM | 92.3 |
| CSc1nc(Cl)c(-c2ccccc2)c(N(C)C)n1 [CBK023169] | viability at 28.5 h, 10 µM | 96.9 |
| CC(=O)c1ccc(CN2CCCN(S(=O)(=O)c3ccc(C(F)(F)F)cc3Cl)CC2)cc1 [CBK063106] | viability at 28.5 h, 10 µM | 104 |
| O=C(Cn1ccccc1=O)Nc1ccc(OCC(F)(F)F)nc1 [CBK304556] | viability at 28.5 h, 10 µM | 88.9 |
| Cc1nn(-c2ccc3nnc(C)n3n2)c2c1C(c1ccccc1F)CC(=O)N2 (centres unmarked) [CBK287898] | viability at 28.5 h, 10 µM | 83.3 |
| Cc1ccccc1OCC(O)CN1CCN(CCN2C(=O)c3cccc4cccc(c34)C2=O)CC1 (centres unmarked) [CBK278321C] | viability at 28.5 h, 10 µM | 68.9 |

[Q] So what does the record say about viability at 28.5 h, 10 µM for NS(=O)(=O)c1ccc(NC(=O)CSc2nc3sc4c(c3c(=O)[nH]2)CCC4)cc1 [CBK265554] ?
[A] 103

[Q] Item: CC(C)n1c(=O)n(CCN2CCCCC2)c2cccnc21 [CBK283932]
[A] 95.4

[Q] How about this compound: COc1ccc(CNC(=O)c2sccc2S(=O)(=O)N2CCCCC2)cc1 [CBK305904]
[A] 101

[Q] What about CCNC(=O)c1cnc(-c2ccc(Cl)cc2)c(-c2cccnc2)c1 [CBK037584] ?
[A] 103

[Q] Can you handle COCCNc1cc(-c2ccc(C(C)=O)s2)ncn1 [CBK090791] next?
[A] 115

[Q] Another: Cn1ccnc1C1(O)CC2CCC(C1)N2C(=O)c1cccs1 (centres unmarked) [CBK284088]
[A] 94.2

[Q] Please give the result for CCn1ncc(Br)c1C(=O)Nc1ccc(Cl)cn1 [CBK265826] too.
[A] 94.8

[Q] Same question for NS(=O)(=O)c1ccc(NCc2cc(Cl)ccc2OCc2ccc(F)cc2)cc1 [CBK268196] please.
[A] 87.2
